# EXPERIMENTAL_SYSTEM: Protein Tat (Human immunodeficiency virus type 1 group M subtype B (isolate HXB2)) (UniProt P04608)
# EXPERIMENT: inhibitors of Tat binding to TAR RNA, dose response, counter-screen for Vif-APOBEC3G degradation inhibitor project, biochemical, fluorescence polarization, FAM-labeled TAR RNA (AID 1117361)
# MEASUREMENT_CONDITIONS: at 100 µM (top of the series) unless noted; series mostly up to 100 µM
Out of some 3,600 compounds screened, about 900 (25%) were called active. Only a sample is shown. Results with a measured potency or affinity are listed apart.
READOUT_TYPE: outcome

Known results for molecules:
[ask] I'd like to know its outcome. The molecule in question is Cc1ccc(NC(=O)CSc2nc(CSc3ccc(C)cc3)cc(=O)[nH]2)cc1
[reply] inactive

[ask] I'd like to know its outcome. The molecule in question is O=[N+]([O-])c1ccc2nc(-c3ccccc3)oc2c1
[reply] inactive

[ask] I'd like to know its outcome. The molecule in question is COc1ccc(C2(O)CCN(Cc3nnnn3Cc3ccc(F)cc3)CC2)cc1
[reply] inactive

[ask] I'd like to know its outcome. The molecule in question is Cc1ccc(S(=O)(=O)NCCCOC(=O)Nc2ccncc2)cc1
[reply] inactive

---
[ask] I'd like to know its outcome. The molecule in question is Cn1nc(C(=O)OCC(=O)N2CCc3ccccc32)c2ccccc2c1=O
[reply] inactive

[ask] I'd like to know its outcome. The molecule in question is CCOC(=O)c1c(NC(=O)C(C)N2CCN(C(=O)c3ccco3)CC2)sc2c1CCCC2 (configuration not stated)
[reply] inactive
